Molecular target: T1, Cynomolgus CTGF-Fc (fusion protein of cynomolgus CTGF coding region with Fc) (cynomolgus)
T1 construct: also called cyno-CTGF-mFc protein; cyno-CTGF protein with Fc tag
T1 sequence (chain, as listed by the source limits assumed): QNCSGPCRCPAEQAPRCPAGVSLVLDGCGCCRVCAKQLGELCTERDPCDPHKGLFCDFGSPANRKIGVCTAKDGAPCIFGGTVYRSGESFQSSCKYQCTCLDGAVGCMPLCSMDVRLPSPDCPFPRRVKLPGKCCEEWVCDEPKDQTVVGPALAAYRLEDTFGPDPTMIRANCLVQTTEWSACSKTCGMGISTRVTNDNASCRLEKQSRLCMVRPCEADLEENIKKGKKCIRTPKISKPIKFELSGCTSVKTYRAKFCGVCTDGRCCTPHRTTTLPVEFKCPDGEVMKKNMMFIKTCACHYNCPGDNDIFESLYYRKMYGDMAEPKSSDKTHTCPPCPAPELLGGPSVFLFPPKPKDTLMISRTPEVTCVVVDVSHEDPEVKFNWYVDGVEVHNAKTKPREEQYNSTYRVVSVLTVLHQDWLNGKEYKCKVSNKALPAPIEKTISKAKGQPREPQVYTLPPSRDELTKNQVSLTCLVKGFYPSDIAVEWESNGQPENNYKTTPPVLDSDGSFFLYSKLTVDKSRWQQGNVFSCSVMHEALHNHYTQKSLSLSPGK
Assay: ELISA, cyno-CTGF-Fc captured by anti-mFc
Protocol: The binding activity of anti-monkey CTGF antibody to monkey CTGF protein was tested by ELISA assay. […] The anti-mFc Protein (Sigma, Cat No. M4280) was diluted with PBS, pH 7.4 (Shanghai Yuanpei, Cat No. B320) buffer to a concentration of 2 μg/ml, which was added into the 96-well microtiter plate (Corning, Cat No. CLS3590-100EA) at 50 μl/well, and incubated in an incubator at 37° C. for 2 hours. […] The binding of CTGF antibody to cyno CTGF protein was calculated as EC50 value.
pEC50: −log10 of the molar value.
Below is a list of entries, each paired with its recorded pEC50 value.
VALUE TYPE: pEC50

BINDER	VALUE TYPE	OBSERVED MEASUREMENT
Hu147-22wk (antibody, human IgG1, kappa, V domains shown) VH: EVQLVESGGGLVQPGGSLRLSCAASGFTFNTYAMNWVRQAPGKGLEWVARIRTKSNNYATYYADSVKDRFTISRDDSKNSLYLQMNSLKTEDTAVYYCVETGFAYWDQGTLVTVSS VL: EIVLTQSPATLSLSPGERATLSCSASSSVSYMHWFQQKPGQSPKLLIYSTSNLASGIPARFSGSGSGTDYTLTISSLEPEDFAVYYCQQRSSYPLTFGQGTKLEIKR	pEC50	10.14
Hu164-68wl (antibody, human IgG1, lambda, V domains shown) VH: EVTLKESGPVLVKPTETLTLTCTVSGFSLSTFGVHWIRQPPGKGLEWLGVIWRRGGTDYNAAFMSRLTISKDTSKSQVVFTMTNMDPVDTATYYCARDGGFDYWGQGTTVTVSS VL: ETVVTQEPSFSVSPGGTVTLTCRSSIGAVTTSNYANWVQQTPGQAFRGLIGGTSNRAPGVPDRFSGSILGNKAALTITGAQADDESDYYCALWYSTHYVFGGGTKLTVLG	pEC50	10.44
Hu147-31wk (antibody, human IgG1, kappa, V domains shown) VH: EVQLVESGGGLVQPGGSLRLSCAASGFSFNTYAMNWVRQAPGKGLEWVARIRTKSNNYATYYADSVKDRFTISRDDSESSLYLQMNSLKTEDTAVYYCVETGFAYWDQGTLVTVSS VL: EIVLTQSPATLSLSPGERATLSCSASSSVSYMHWFQQKPGQSPRLLIYSTSNLASGIPARFSGSGSGTDYTLTISSLEPEDFAVYYCQQRSSYPLTFGQGTKLEIKR	pEC50	10.15
Hu147-14wk (antibody, human IgG1, kappa, V domains shown) VH: EVQLVESGGGLVQPGGSLRLSCAASGFTFSTYAMNWVRQAPGKGLEWVGRIRTKSNNYATYYADSVKDRFTISRDDSKNSLYLQMNSLKTEDTAVYYCVETGFAYWDQGTLVTVSS VL: DIQMTQSPSSLSASVGDRVTITCSASSSVSYMHWFQQKPGKSPKLLIYSTSNLASGVPSRFSGSGSGTDYTLTISSLQPEDFATYYCQQRSSYPLTFGQGTKLEIKR	pEC50	10.11
Hu164-57wl (antibody, human IgG1, lambda, V domains shown) VH: EVTLKESGPVLVKPTETLTLTCTVSGFSLSTFGVHWIRQPPGKALEWLAVIWRRGGTDYNAAFMSRLTISKDTSKSQVVLTMTNMDPVDTATYYCARDGGFDYWGQGTTVTVSS VL: ETVVTQEPSLTVSPGGTVTLTCRSSIGAVTTSNYANWVQQKPGQAFRGLIGGTSNRAPWTPARFSGSLLGGKAALTLSGVQPEDEAEYYCALWYSTHYVFGGGTKLTVLG	pEC50	10.54
Hu164-87wl (antibody, human IgG1, lambda, V domains shown) VH: EVQLQESGPGLVKPSQTLSLTCTVSGFSISTFGVHWIRQHPGKGLEWLGVIWRRGGTDYNAAFMSRLTISKDTSKNQVSFKLSSVTAADTAVYYCARDGGFDYWGQGTTVTVSS VL: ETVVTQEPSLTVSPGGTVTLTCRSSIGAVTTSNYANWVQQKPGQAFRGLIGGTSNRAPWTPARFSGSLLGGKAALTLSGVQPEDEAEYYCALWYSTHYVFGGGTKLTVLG	pEC50	10.47
Hu147-24wk (antibody, human IgG1, kappa, V domains shown) VH: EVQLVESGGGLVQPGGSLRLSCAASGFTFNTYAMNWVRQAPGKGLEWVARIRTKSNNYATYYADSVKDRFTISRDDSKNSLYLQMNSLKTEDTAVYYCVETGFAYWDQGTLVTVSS VL: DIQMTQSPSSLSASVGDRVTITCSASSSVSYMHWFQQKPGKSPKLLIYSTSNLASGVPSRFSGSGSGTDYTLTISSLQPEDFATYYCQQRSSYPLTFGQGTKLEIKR	pEC50	10.10
Hu147-13wk (antibody, human IgG1, kappa, V domains shown) VH: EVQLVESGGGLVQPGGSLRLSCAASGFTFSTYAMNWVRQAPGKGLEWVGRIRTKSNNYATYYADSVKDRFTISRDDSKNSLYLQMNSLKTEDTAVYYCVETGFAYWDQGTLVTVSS VL: EIVLTQSPATLSLSPGERATLSCSASSSVSYMHWFQQKPGQSPKLWIYSTSNLASGVPARFSGSGSGTDYTLTISSLEPEDFAVYYCQQRSSYPLTFGQGTKLEIKR	pEC50	10.37
Hu95-51yk (antibody, human IgG1, kappa, V domains shown) VH: EVQLVQSGAEVKKPGASVKVSCRASGFTFTNYAIHWVKQAPGQRLEWMGLVYPYTGGTAYNQKFKDKVTLTFDTSASTAYMELSSLRSEDTAVYYCARWGMIPGTNSYFDVWGQGTTVTVSS VL: EIVLTQSPATLSLSPGERATLSCRASSSVSYIHWYQQKPGQAPRPWIYATSNLASGIPARFSGSGSGTDYTLTISRLEPEDFAVYYCQQWNSNPWTFGGGTKVEIKR	pEC50	10.23
Hu147-12wk (antibody, human IgG1, kappa, V domains shown) VH: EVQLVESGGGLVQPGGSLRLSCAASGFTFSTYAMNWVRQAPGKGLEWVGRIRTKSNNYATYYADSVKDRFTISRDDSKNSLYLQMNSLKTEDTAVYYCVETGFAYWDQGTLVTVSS VL: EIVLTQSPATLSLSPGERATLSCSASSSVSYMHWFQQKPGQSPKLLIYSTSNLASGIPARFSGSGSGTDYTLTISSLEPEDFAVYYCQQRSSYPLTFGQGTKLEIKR	pEC50	10.21
